# experimental.details: Lipophilicity, log D of the compound at pH 7.4
# Assay type: physicochemical
# condition: buffer
reported.metric: logD

| smiles.repr | value.measured |
| --- | --- |
| COc1cc2c(cc1OC)CN(c1ccccc1)CC2 | 4.5 |
| COc1ccc(N2CCc3cc(OC)c(OC)cc3C2)cc1 | 4.2 |
| COc1cc2c(cc1OC)CN(c1cccnc1)CC2 | 3.7 |
| COc1cc2c(cc1OC)CN(c1ccc(F)cc1)CC2 | 4.5 |
| COc1cc2c(cc1OC)CN(c1cc(C(F)(F)F)cc(C(F)(F)F)c1)CC2 | 5.7 |
| COc1cc2c(cc1OC)CN(c1cccc(O)c1)CC2 | 3.2 |

----------
# experimental.details: Metabolic stability in mouse liver microsome assessed as compound remaining at 500 uM measured at 10 mins by LC-MS/MS method
# Assay type: ADME
# condition: liver microsomes, read-out: Stability
Each record here notes measured remaining at 10 min.
reported.metric: remaining at 10 min (%)

| compound | value.measured |
| --- | --- |
| COc1cc2c(cc1OC)C(C)N(c1ccc(CO)cc1)CC2 (configuration not stated) | 83.4 |
| COc1cc2c(cc1OC)CN(c1cccc(O)c1)CC2 | 22.5 |
| COc1cc2c(cc1OC)CN(c1ccccn1)CC2 | 9.9 |
| COc1cc2c(cc1OC)CN(c1ccc(C(=O)O)cc1)CC2 | 91.6 |
| COc1cc2c(cc1OC)CN(c1ccccc1)CC2 | 3.7 |
| COc1cc2c(cc1OC)CN(c1ccc(C=O)cc1)CC2 | 12.6 |
| COC(=O)c1ccccc1N1CCc2cc(OC)c(OC)cc2C1 | 0.4 |

----------
# experimental.details: Solubility of compound in PBS at pH 7.0 at 100 uM measured for 20 mins by LC-MS/MS analysis
# Format: physicochemical
The entries below come with measured solubility at 20 min, 100 µM values attached.

| compound | solubility at 20 min, 100 µM |
| --- | --- |
| COc1cc2c(cc1OC)CN(c1cc(C(F)(F)F)cc(C(F)(F)F)c1)CC2 | < 0.5 µM |
| COc1cc2c(cc1OC)C(C)N(c1ccc(C=O)cc1)CC2 (stereo not drawn) | 22.2 µM |
| COc1cc2c(cc1OC)CN(c1ccc(C(=O)O)cc1)CC2 | ≥ 95 µM |

----------
# experimental.details: Metabolic stability in human liver microsome assessed as compound remaining at 500 uM measured at 60 mins by LC-MS/MS method
# Assay type: ADME
# condition: liver microsomes, read-out: Stability
reported.metric: remaining at 1 h (%)

| compound | value.measured |
| --- | --- |
| COc1cc2c(cc1OC)CN(c1ccc(F)cc1)CC2 | 56.9 |
| COc1cc2c(cc1OC)CN(c1cccnc1)CC2 | 15.5 |
| COC(=O)c1ccccc1N1CCc2cc(OC)c(OC)cc2C1 | 0.2 |
| COc1cc2c(cc1OC)C(C)N(c1ccc(CO)cc1)CC2 (configuration not stated) | 78.4 |
| COc1ccc(N2CCc3cc(OC)c(OC)cc3C2)cc1 | 53.5 |
| COc1cc2c(cc1OC)CN(c1ccc(CO)cc1)CC2 | 79.5 |
| COc1cc2c(cc1OC)CN(c1cc(C(F)(F)F)cc(C(F)(F)F)c1)CC2 | 62.2 |
